Experiment: Solubility of the free base of the compound of Formula I in solvents and mixed solvent systems
Format: physicochemical
Conditions: 25 °C, organic solvent or mixture, thermodynamic from solid; 30% DCM in EtOH, room temperature; read-out: Solubility
MEASURE_NAME: solubility (µg/mL)
Numbers only, in µg/mL.

Return solubility for the following compound: COc1ccc(CN2CCN(c3ccc(-c4cc(-c5cnn(C)c5)cn5ncc(C#N)c45)cn3)CC2)cn1 [freebase of the compound of Formula I]
870

* * *

Assay: Solubility of the free base of the compound of Formula I in solvents and mixed solvent systems
Format: physicochemical
Conditions: 25 °C, organic solvent or mixture, thermodynamic from solid; 70% DMSO in EtOH, room temperature; read-out: Solubility
MEASURE_NAME: solubility (µg/mL)
One number for each entry, in µg/mL.

Return solubility for the following molecule: COc1ccc(CN2CCN(c3ccc(-c4cc(-c5cnn(C)c5)cn5ncc(C#N)c45)cn3)CC2)cn1 [freebase of the compound of Formula I]
2570
